Tested on: time-mated Wistar rats
method summary: in vivo maternal and prenatal developmental toxicity screening study (OECD 414 principles)
condition: rat, gavage GD 6–19, 200 mg/kg
recorded metric: Postimplantation loss (%)

• OC(c1cccnc1)c1c(-c2ccc(F)cc2F)csc1-c1ccc(F)cc1F (stereo not shown) = 24
• OC(c1cccnc1)c1c(-c2ccc(F)cc2F)noc1-c1ccc(Cl)cc1F (stereo not shown) = 7.8
• CC(c1nc(-c2ccc(C#N)cc2)cs1)C(O)(Cn1cncn1)c1ccc(F)cc1 (stereo not shown) = 2.9
• CC1CC(C)OC(Cn2cncn2)(c2ccc(Oc3ccc(Cl)cc3)cc2Cl)O1 (stereo not shown) = 4.0

====

System: time-mated Wistar rats
method summary: in vivo maternal and prenatal developmental toxicity screening study (OECD 414 principles)
condition: rat, gavage GD 6–19, 600 mg/kg
Procedure: The major differences to a full guideline study were the smaller sample size, using 9–10 instead of at least 16 pregnant rats, per test substance. […] On GD 20, the surviving dams were anesthetized with isoflurane, killed by decapitation and examined macroscopically. For each dam, the uterus was opened and the number, distribution and classification of implantation sites (live fetus, early and late fetal resorptions, and dead fetus) were determined. […]
The reader will find reported Total number of fetuses values listed item by item below.
recorded metric: Total number of fetuses

* OC(c1cccnc1)c1c(-c2ccc(F)cc2F)csc1-c1ccc(F)cc1F (stereo not shown) [compound 0595] | 0
* CC1CC(C)OC(Cn2cncn2)(c2ccc(Oc3ccc(Cl)cc3)cc2Cl)O1 (stereo not shown) [compound 0600] | 104
* OC(c1cccnc1)c1c(-c2ccc(F)cc2F)noc1-c1ccc(Cl)cc1F (stereo not shown) [compound 0594] | 98
* CC(c1nc(-c2ccc(C#N)cc2)cs1)C(O)(Cn1cncn1)c1ccc(F)cc1 (stereo not shown) [compound 0596] | 102

====

Test system: time-mated Wistar rats
method summary: in vivo maternal and prenatal developmental toxicity screening study (OECD 414 principles)
condition: rat, gavage GD 6–19, 200 mg/kg
The reader will find reported Fetal weight (%) values listed item by item below.
recorded metric: Fetal weight (%)

* CC(c1nc(-c2ccc(C#N)cc2)cs1)C(O)(Cn1cncn1)c1ccc(F)cc1 (stereo not shown) | 108
* OC(c1cccnc1)c1c(-c2ccc(F)cc2F)csc1-c1ccc(F)cc1F (stereo not shown) | 102
* OC(c1cccnc1)c1c(-c2ccc(F)cc2F)noc1-c1ccc(Cl)cc1F (stereo not shown) | 107
* CC1CC(C)OC(Cn2cncn2)(c2ccc(Oc3ccc(Cl)cc3)cc2Cl)O1 (stereo not shown) | 102

====

System: time-mated Wistar rats
method summary: in vivo maternal and prenatal developmental toxicity screening study (OECD 414 principles)
condition: rat, gavage GD 6–19, 200 mg/kg
recorded metric: Late resorption (%)

- CC1CC(C)OC(Cn2cncn2)(c2ccc(Oc3ccc(Cl)cc3)cc2Cl)O1 (stereo not shown): 0.0%
- OC(c1cccnc1)c1c(-c2ccc(F)cc2F)noc1-c1ccc(Cl)cc1F (stereo not shown): 1.9%
- OC(c1cccnc1)c1c(-c2ccc(F)cc2F)csc1-c1ccc(F)cc1F (stereo not shown): 2.0%
- CC(c1nc(-c2ccc(C#N)cc2)cs1)C(O)(Cn1cncn1)c1ccc(F)cc1 (stereo not shown): 0.0%

====

Tested on: time-mated Wistar rats
method summary: in vivo maternal and prenatal developmental toxicity screening study (OECD 414 principles)
condition: rat, gavage GD 6–19, 200 mg/kg
recorded metric: Maternal toxicity findings

- OC(c1cccnc1)c1c(-c2ccc(F)cc2F)csc1-c1ccc(F)cc1F (stereo not shown) [compound 0595]: NAD
- CC(c1nc(-c2ccc(C#N)cc2)cs1)C(O)(Cn1cncn1)c1ccc(F)cc1 (stereo not shown) [compound 0596]: NAD
- OC(c1cccnc1)c1c(-c2ccc(F)cc2F)noc1-c1ccc(Cl)cc1F (stereo not shown) [compound 0594]: No
- CC1CC(C)OC(Cn2cncn2)(c2ccc(Oc3ccc(Cl)cc3)cc2Cl)O1 (stereo not shown) [compound 0600]: NAD

====

method summary: WST-1 cytotoxicity assay with ES-D3 cells
Assay type: cell-based
condition: mouse, ES-D3 embryonic stem cells, WST-1, 5-day exposure, read-out: decline in cell viability
The reader will find reported cytotoxicity at 5 days, 60 µM values listed item by item below.
recorded metric: cytotoxicity at 5 days, 60 µM (%)

- CC(c1nc(-c2ccc(C#N)cc2)cs1)C(O)(Cn1ccnc1)c1ccc(F)cc1 (centres unmarked) [compound 0599]: 80
- OC(c1cccnc1)c1c(-c2ccc(F)cc2F)csc1-c1ccc(F)cc1F (centres unmarked) [compound 0595]: 20
- OC(c1cccnc1)c1c(-c2ccc(F)cc2F)noc1-c1ccc(Cl)cc1F (centres unmarked) [compound 0594]: 30
- CC1CC(C)OC(Cn2cncn2)(c2ccc(Oc3ccc(Cl)cc3)cc2Cl)O1 (centres unmarked) [compound 0600]: 20
- CC(c1nc(-c2ccc(C#N)cc2)cs1)C(O)(Cn1cncn1)c1ccc(F)cc1 (centres unmarked) [compound 0596]: 70

====

System: BeWo b30 cell layers
method summary: in vitro BeWo transport model (placental transfer)
condition: BeWo cells, 50 μM (25 nmol) apical, at 90 min
The reader will find reported Intracellular accumulation (% of added amount) values listed item by item below.
recorded metric: Intracellular accumulation (% of added amount)

- CC(c1nc(-c2ccc(C#N)cc2)cs1)C(O)(Cn1ccnc1)c1ccc(F)cc1 (stereo not drawn): 22 % of added amount
- CC(c1nc(-c2ccc(C#N)cc2)cs1)C(O)(Cn1cncn1)c1ccc(F)cc1 (stereo not drawn): 12 % of added amount
- CC1(C)S[C@@H]2[C@H](NC(=O)[C@H](N)c3ccc(O)cc3)C(=O)N2[C@H]1C(=O)O [Amoxicillin, amoxicillin, reference compound]: 0 % of added amount

Taken from paper PMC4830886.
